Target: Stp1 (UniProt B3LFK1)
Sequence: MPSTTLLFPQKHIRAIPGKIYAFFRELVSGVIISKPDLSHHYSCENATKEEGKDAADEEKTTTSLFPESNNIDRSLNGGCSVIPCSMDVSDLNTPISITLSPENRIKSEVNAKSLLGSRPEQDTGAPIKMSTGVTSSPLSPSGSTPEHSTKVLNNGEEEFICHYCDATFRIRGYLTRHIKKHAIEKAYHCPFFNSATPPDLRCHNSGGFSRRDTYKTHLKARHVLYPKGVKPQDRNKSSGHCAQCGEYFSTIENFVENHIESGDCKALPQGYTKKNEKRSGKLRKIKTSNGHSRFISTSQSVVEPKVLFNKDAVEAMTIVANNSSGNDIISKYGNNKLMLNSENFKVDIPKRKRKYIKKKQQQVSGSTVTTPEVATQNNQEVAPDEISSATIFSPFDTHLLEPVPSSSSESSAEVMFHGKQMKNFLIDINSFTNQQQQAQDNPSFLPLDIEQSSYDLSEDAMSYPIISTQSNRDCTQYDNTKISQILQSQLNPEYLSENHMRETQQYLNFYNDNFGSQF
Assay: PBM E-score (8-mer binding enrichment) (E-score (-0.5 to 0.5)); higher = stronger / more preferred TF binding
Conditions: protein concentration: 200 nM; construct: GST-full length
In all, about 33,000 sequences were measured (“E-score (-0.5 to 0.5)”: median about -0.016, highest 2% from about 0.32 on). This is one part of a sample in which the highest values are shown more often than they occur.
recorded.metric: PBM E-score
Output spec: single numeric token, no unit.

q: PBM E-score lookup needed for `ACAAAAGT` , thanks.
a: 0.0775

q: PBM E-score lookup needed for `ATACCGCC` , thanks.
a: 0.1

q: PBM E-score lookup needed for `CCGGCTCC` , thanks.
a: -0.129

q: PBM E-score lookup needed for `ACGGCTCT` , thanks.
a: 0.454

q: PBM E-score lookup needed for `GAACGCCA` , thanks.
a: 0.0737

q: PBM E-score lookup needed for `ACGCGGAC` , thanks.
a: 0.0606

q: PBM E-score lookup needed for `ACTGCCGC` , thanks.
a: 0.412

q: PBM E-score lookup needed for `ACGTTTAA` , thanks.
a: 0.12

q: PBM E-score lookup needed for `CAGTCTGA` , thanks.
a: -0.0528

q: PBM E-score lookup needed for `CAACGCCC` , thanks.
a: 0.0959

q: PBM E-score lookup needed for `AAACGCCC` , thanks.
a: 0.231

q: PBM E-score lookup needed for `ACGGCTCA` , thanks.
a: 0.403

q: PBM E-score lookup needed for `ACGCGGTC` , thanks.
a: -0.0102

q: PBM E-score lookup needed for `CGTAATAC` , thanks.
a: 0.186

q: PBM E-score lookup needed for `CGGCGGGA` , thanks.
a: 0.207

q: PBM E-score lookup needed for `CGGCGGCA` , thanks.
a: 0.418

q: PBM E-score lookup needed for `CCAAAGTC` , thanks.
a: -0.132

q: PBM E-score lookup needed for `AGTGCCAC` , thanks.
a: 0.242

q: PBM E-score lookup needed for `CGTGCCCA` , thanks.
a: 0.235

q: PBM E-score lookup needed for `ATCAGAGC` , thanks.
a: 0.0942

q: PBM E-score lookup needed for `CAACGCCA` , thanks.
a: 0.0795

q: PBM E-score lookup needed for `AGGCGGGG` , thanks.
a: 0.023

q: PBM E-score lookup needed for `AGTGCCGC` , thanks.
a: 0.477

q: PBM E-score lookup needed for `AAGGCTCT` , thanks.
a: 0.21

q: PBM E-score lookup needed for `ACGGCTCG` , thanks.
a: 0.444

q: PBM E-score lookup needed for `GGCCTCAC` , thanks.
a: -0.00507

###

Target: Stp1 (UniProt B3LFK1)
Sequence: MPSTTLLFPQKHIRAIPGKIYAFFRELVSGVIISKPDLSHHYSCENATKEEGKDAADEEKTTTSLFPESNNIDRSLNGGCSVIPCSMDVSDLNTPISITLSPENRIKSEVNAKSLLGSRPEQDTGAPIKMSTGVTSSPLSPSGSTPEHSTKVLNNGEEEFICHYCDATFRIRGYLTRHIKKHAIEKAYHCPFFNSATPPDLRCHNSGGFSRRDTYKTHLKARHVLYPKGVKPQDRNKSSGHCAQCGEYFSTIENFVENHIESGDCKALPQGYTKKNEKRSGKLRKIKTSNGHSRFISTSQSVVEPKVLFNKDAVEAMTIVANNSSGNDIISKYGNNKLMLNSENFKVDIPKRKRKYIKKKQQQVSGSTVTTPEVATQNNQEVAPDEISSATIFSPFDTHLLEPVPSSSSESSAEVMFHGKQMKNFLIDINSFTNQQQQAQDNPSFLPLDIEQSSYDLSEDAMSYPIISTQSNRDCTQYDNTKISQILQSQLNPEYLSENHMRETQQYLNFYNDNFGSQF
Assay: PBM E-score (8-mer binding enrichment) (E-score (-0.5 to 0.5)); higher = stronger / more preferred TF binding
Details: protein concentration: 200 nM; construct: GST-full length
In all, about 33,000 sequences were measured (“E-score (-0.5 to 0.5)”: median about -0.016, highest 2% from about 0.32 on). Many of the other results were omitted from the sample, so the highest values are more common in it than they were.
recorded.metric: PBM E-score
Output spec: single numeric token, no unit.

q: PBM E-score lookup needed for `CGCCGCCA` , thanks.
a: 0.154

q: PBM E-score lookup needed for `ACTACGGC` , thanks.
a: 0.359

q: PBM E-score lookup needed for `ACTACGGA` , thanks.
a: -0.0355

q: PBM E-score lookup needed for `CCTACTGC` , thanks.
a: 0.107

q: PBM E-score lookup needed for `AAGAACCA` , thanks.
a: -0.0227

q: PBM E-score lookup needed for `CGGCGCAA` , thanks.
a: 0.422

q: PBM E-score lookup needed for `TGAGATCA` , thanks.
a: 0.0358

q: PBM E-score lookup needed for `AACCGCCC` , thanks.
a: -0.149

q: PBM E-score lookup needed for `CCGAACGC` , thanks.
a: 0.226

q: PBM E-score lookup needed for `CCGAACGG` , thanks.
a: 0.334

q: PBM E-score lookup needed for `AGCCGCCC` , thanks.
a: 0.11

q: PBM E-score lookup needed for `CGCATTAA` , thanks.
a: 0.144

q: PBM E-score lookup needed for `AGCATTAA` , thanks.
a: -0.0764

q: PBM E-score lookup needed for `AACCGCCG` , thanks.
a: 0.324

q: PBM E-score lookup needed for `CCAAACTA` , thanks.
a: -0.0843

q: PBM E-score lookup needed for `GGCTGACA` , thanks.
a: 0.0532

q: PBM E-score lookup needed for `ATCGCTGA` , thanks.
a: -0.0887

q: PBM E-score lookup needed for `GCCGCCGC` , thanks.
a: 0.424

q: PBM E-score lookup needed for `GAGATAGA` , thanks.
a: -0.0115

q: PBM E-score lookup needed for `GGCATTAA` , thanks.
a: 0.319

q: PBM E-score lookup needed for `CATGTAGG` , thanks.
a: -0.00116

q: PBM E-score lookup needed for `CCGAACGA` , thanks.
a: -0.0055

q: PBM E-score lookup needed for `AACCGCCA` , thanks.
a: -0.153

q: PBM E-score lookup needed for `CCTACGCC` , thanks.
a: -0.0289

###

Biological target: Stp1 (UniProt B3LFK1)
Sequence: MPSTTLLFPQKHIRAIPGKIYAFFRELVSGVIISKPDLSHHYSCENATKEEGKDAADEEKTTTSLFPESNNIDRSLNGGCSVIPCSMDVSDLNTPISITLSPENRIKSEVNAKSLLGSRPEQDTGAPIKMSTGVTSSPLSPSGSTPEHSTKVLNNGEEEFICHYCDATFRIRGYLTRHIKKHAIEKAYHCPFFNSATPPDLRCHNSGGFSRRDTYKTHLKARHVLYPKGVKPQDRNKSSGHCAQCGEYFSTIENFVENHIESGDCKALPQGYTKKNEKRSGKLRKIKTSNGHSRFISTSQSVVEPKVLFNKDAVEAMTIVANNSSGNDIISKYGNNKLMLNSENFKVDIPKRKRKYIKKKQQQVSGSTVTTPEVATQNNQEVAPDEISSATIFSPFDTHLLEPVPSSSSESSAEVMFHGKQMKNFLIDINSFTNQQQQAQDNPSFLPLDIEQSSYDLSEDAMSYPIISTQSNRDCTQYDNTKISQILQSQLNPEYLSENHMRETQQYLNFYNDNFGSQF
Assay: PBM E-score (8-mer binding enrichment) (E-score (-0.5 to 0.5)); higher = stronger / more preferred TF binding
Conditions: protein concentration: 200 nM; construct: GST-full length
In all, about 33,000 sequences were measured (“E-score (-0.5 to 0.5)”: median about -0.016, highest 2% from about 0.32 on). Only a selection was taken, and the highest values are over-represented in it overall.
recorded.metric: PBM E-score
Output spec: single numeric token, no unit.

q: PBM E-score lookup needed for `CTTCCGTA` , thanks.
a: 0.163

q: PBM E-score lookup needed for `AGTTATCG` , thanks.
a: 0.106

q: PBM E-score lookup needed for `GTGCTGCA` , thanks.
a: 0.0505

q: PBM E-score lookup needed for `ACCTCGTA` , thanks.
a: -0.0684

q: PBM E-score lookup needed for `TAGGGCGA` , thanks.
a: 0.178

q: PBM E-score lookup needed for `ACCAGGGT` , thanks.
a: -0.398

q: PBM E-score lookup needed for `GCGTACGC` , thanks.
a: -0.0472

q: PBM E-score lookup needed for `ACGGCCGC` , thanks.
a: 0.406

q: PBM E-score lookup needed for `ATGCCGAC` , thanks.
a: 0.0658

q: PBM E-score lookup needed for `ATTCCGTA` , thanks.
a: 0.106

q: PBM E-score lookup needed for `GGGCATTA` , thanks.
a: 0.139

q: PBM E-score lookup needed for `CCCGCGCG` , thanks.
a: 0.328

q: PBM E-score lookup needed for `CAAGACCA` , thanks.
a: -0.15

q: PBM E-score lookup needed for `ATGCCGTA` , thanks.
a: 0.478

q: PBM E-score lookup needed for `CCCAGTCG` , thanks.
a: -0.267

q: PBM E-score lookup needed for `ATGGAGGC` , thanks.
a: -0.236

q: PBM E-score lookup needed for `ACGGCCGA` , thanks.
a: 0.191

q: PBM E-score lookup needed for `AGACGCGC` , thanks.
a: 0.0493

q: PBM E-score lookup needed for `GATACGAC` , thanks.
a: 0.0153

q: PBM E-score lookup needed for `ACCGTAAC` , thanks.
a: 0.0376

q: PBM E-score lookup needed for `ATACCGTA` , thanks.
a: 0.133

q: PBM E-score lookup needed for `CCTCGGAA` , thanks.
a: -0.0641

q: PBM E-score lookup needed for `ATGCCGTC` , thanks.
a: 0.406

q: PBM E-score lookup needed for `AGGCCAGA` , thanks.
a: -0.103

q: PBM E-score lookup needed for `CTGCCTGA` , thanks.
a: -0.0731

q: PBM E-score lookup needed for `CCAGAACC` , thanks.
a: -0.154

q: PBM E-score lookup needed for `CGTAGGAA` , thanks.
a: -0.0469

q: PBM E-score lookup needed for `ACCAAGTG` , thanks.
a: -0.0911

q: PBM E-score lookup needed for `AATACGGG` , thanks.
a: -0.0327

q: PBM E-score lookup needed for `GATACGGA` , thanks.
a: 0.285

q: PBM E-score lookup needed for `GAGGCCGC` , thanks.
a: 0.095

q: PBM E-score lookup needed for `GCCGTAAC` , thanks.
a: 0.33

q: PBM E-score lookup needed for `CGGCATTA` , thanks.
a: 0.436

q: PBM E-score lookup needed for `CGCACGCA` , thanks.
a: -0.00526

q: PBM E-score lookup needed for `ACGGCCGT` , thanks.
a: 0.401

q: PBM E-score lookup needed for `TCCGTAAA` , thanks.
a: 0.0695

q: PBM E-score lookup needed for `AGTGAATG` , thanks.
a: 0.0894

q: PBM E-score lookup needed for `GTTGAATA` , thanks.
a: 0.0719

q: PBM E-score lookup needed for `AAATTTCT` , thanks.
a: -0.0455

q: PBM E-score lookup needed for `AGGGCGCG` , thanks.
a: 0.369

q: PBM E-score lookup needed for `GATACGGC` , thanks.
a: 0.463

q: PBM E-score lookup needed for `GGTTTGAA` , thanks.
a: 0.0901

q: PBM E-score lookup needed for `GGCACGGA` , thanks.
a: 0.376

q: PBM E-score lookup needed for `ATGCCGTG` , thanks.
a: 0.484

q: PBM E-score lookup needed for `ACCATCAA` , thanks.
a: -0.149

q: PBM E-score lookup needed for `GCCTCGTA` , thanks.
a: 0.346

q: PBM E-score lookup needed for `TCCGTAGA` , thanks.
a: 0.0858

q: PBM E-score lookup needed for `CCGTACGC` , thanks.
a: 0.327

q: PBM E-score lookup needed for `AAATGCCC` , thanks.
a: -0.108

q: PBM E-score lookup needed for `ATAGTTCG` , thanks.
a: 0.0223

q: PBM E-score lookup needed for `CTGCCGGA` , thanks.
a: 0.02

q: PBM E-score lookup needed for `GCGGCCGC` , thanks.
a: 0.373

q: PBM E-score lookup needed for `GAAGCATA` , thanks.
a: -0.00057

q: PBM E-score lookup needed for `ACCGTAGC` , thanks.
a: -0.138

q: PBM E-score lookup needed for `CCCGCGCC` , thanks.
a: 0.297

q: PBM E-score lookup needed for `CATACGGA` , thanks.
a: 0.268

q: PBM E-score lookup needed for `CCGTACGA` , thanks.
a: 0.298

q: PBM E-score lookup needed for `ACGTACGG` , thanks.
a: 0.292

q: PBM E-score lookup needed for `ACGGCCGG` , thanks.
a: 0.0865

q: PBM E-score lookup needed for `CGCGCGAG` , thanks.
a: 0.239

q: PBM E-score lookup needed for `TCTCGAGA` , thanks.
a: -0.01

q: PBM E-score lookup needed for `CCCGTAGC` , thanks.
a: -0.24

q: PBM E-score lookup needed for `CACCACGA` , thanks.
a: -0.0238

q: PBM E-score lookup needed for `AGGCATTA` , thanks.
a: 0.228

q: PBM E-score lookup needed for `GATTGTCC` , thanks.
a: -0.0756

q: PBM E-score lookup needed for `CTGCCGTA` , thanks.
a: 0.343

q: PBM E-score lookup needed for `CGCACGGA` , thanks.
a: 0.39

q: PBM E-score lookup needed for `AGTTTGGA` , thanks.
a: 0.0815

q: PBM E-score lookup needed for `CGCGCGCG` , thanks.
a: 0.405
